Biological target: HCMV polymerase (Human cytomegalovirus, UniProt P08546)
Construct: made in house; host or cells: recombinant baculovirus-infected SF-9 cells
Sequence (P08546 whole entry): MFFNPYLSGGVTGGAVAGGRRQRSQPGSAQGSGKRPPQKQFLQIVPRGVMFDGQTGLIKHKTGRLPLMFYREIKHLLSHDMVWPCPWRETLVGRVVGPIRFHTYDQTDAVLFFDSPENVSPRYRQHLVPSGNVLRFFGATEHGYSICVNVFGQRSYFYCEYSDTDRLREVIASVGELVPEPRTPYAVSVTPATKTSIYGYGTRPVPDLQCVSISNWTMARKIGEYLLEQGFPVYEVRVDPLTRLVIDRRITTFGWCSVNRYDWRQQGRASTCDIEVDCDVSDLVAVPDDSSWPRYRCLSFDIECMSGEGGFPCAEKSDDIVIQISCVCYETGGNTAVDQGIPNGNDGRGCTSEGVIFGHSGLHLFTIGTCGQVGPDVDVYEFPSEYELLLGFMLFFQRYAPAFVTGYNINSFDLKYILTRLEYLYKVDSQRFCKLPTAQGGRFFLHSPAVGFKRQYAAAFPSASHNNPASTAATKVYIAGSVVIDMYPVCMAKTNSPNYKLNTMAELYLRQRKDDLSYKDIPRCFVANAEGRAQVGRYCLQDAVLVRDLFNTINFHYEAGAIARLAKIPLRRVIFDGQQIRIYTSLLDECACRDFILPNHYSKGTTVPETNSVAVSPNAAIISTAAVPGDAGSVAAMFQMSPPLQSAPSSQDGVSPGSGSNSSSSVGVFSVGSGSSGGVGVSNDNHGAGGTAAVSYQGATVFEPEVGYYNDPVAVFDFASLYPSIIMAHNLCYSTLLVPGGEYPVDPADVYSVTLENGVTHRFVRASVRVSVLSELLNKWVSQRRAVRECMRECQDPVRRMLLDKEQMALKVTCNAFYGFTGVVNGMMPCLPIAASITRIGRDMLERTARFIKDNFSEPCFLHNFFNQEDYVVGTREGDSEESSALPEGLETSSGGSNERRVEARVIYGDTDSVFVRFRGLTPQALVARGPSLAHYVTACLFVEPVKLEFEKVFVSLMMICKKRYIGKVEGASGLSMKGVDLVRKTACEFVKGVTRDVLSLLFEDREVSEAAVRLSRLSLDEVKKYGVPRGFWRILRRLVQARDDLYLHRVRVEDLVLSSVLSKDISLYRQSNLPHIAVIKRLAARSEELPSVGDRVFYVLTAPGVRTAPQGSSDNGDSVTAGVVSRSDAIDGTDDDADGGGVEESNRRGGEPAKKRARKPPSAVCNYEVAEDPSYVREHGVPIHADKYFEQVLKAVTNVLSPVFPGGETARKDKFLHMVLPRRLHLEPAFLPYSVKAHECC
Test: biochemical
measuredQuantity: IC50 (µM)

INSERT INTO results (molecule, experimentalsystem, resultvalue) VALUES
  ('Cn1cc(C(=O)NCc2ccc(Cl)cc2)c(=O)c2cc(CN3CCOCC3)cc(F)c21 [Example 10]', 'HCMV polymerase (Human cytomegalovirus, UniProt P08546)', 1),
  ('CC(C)(C)n1cc(C(=O)NCc2ccc(Cl)cc2)c(=O)c2cc(CCCO)ccc21 [Example 6]', 'HCMV polymerase (Human cytomegalovirus, UniProt P08546)', 2.8);

====

Reported values: pIC50 for UniProtKB P09252, one per item.
Sequence (P09252 whole entry): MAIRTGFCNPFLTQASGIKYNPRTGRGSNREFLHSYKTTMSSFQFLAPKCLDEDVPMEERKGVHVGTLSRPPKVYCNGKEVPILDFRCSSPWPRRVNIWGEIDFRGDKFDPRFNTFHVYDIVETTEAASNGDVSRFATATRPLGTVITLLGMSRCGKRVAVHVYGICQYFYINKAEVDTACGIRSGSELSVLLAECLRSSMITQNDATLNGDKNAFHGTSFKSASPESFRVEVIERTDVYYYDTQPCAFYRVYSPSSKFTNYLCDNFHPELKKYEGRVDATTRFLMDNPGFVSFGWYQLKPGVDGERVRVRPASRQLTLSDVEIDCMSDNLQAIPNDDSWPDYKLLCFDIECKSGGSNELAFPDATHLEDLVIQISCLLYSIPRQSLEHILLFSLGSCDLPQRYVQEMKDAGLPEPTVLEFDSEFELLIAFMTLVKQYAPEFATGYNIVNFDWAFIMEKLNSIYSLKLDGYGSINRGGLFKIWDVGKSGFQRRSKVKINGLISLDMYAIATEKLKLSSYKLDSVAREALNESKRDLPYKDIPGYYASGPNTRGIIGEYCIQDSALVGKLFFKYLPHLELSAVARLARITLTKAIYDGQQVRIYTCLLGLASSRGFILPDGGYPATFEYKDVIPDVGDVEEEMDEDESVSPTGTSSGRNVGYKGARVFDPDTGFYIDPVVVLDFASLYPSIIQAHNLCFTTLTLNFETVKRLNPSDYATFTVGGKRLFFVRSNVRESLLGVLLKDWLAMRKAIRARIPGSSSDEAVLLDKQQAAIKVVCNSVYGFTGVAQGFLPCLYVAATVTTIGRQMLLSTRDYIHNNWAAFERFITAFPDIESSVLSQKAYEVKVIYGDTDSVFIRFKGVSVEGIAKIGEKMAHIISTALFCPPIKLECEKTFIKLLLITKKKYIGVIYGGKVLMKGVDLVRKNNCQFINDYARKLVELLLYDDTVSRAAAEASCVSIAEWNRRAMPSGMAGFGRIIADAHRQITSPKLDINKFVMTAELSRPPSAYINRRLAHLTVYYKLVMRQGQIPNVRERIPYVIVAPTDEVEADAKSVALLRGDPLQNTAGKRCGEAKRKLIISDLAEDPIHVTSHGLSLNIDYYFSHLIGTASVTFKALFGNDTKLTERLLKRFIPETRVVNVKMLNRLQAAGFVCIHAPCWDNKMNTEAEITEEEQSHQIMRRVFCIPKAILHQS
pIC50: −log10 of the molar value.
measuredQuantity: pIC50

INSERT INTO assay_data (itemsmiles, experimentalsystem, resultvalue) VALUES
  ('Cn1cc(C(=O)NCc2ccc(Cl)cc2)c(=O)c2cc(CCCO)ccc21', 'UniProtKB P09252', 6.39),
  ('Cn1cc(C(=O)NCc2ccc(Cl)cc2)c(=O)c2cc(C(C)(C)CCO)ccc21', 'UniProtKB P09252', 5.70),
  ('Cn1cc(C(=O)NCc2ccc(Cl)cc2)c(=O)c2cc(CN3CCOCC3)ccc21', 'UniProtKB P09252', 6.36);

====

Molecular target: HCMV polymerase (Human cytomegalovirus, UniProt P08546)
Construct: made in house; host or cells: recombinant baculovirus-infected SF-9 cells
Experiment: biochemical
Conditions: HCMV polymerase; modified SPA, compounds in 100% DMSO, 4.5 mM DTT added
Mark YES only for IC50 values smaller than 2000 nM; exact matches and larger values are NO.

INSERT INTO measurements (compound, categorylabel) VALUES
  ('Cn1cc(C(=O)NCc2ccc(Cl)cc2)c(=O)c2cc(CN3CC[S+]([O-])CC3)ccc21 [Example 9]', 'NO'),
  ('Cn1cc(C(=O)NCc2ccc(Cl)cc2)c(=O)c2cc(CCCO)ccc21 [Example 5]', 'YES'),
  ('Cn1cc(C(=O)NCc2ccc(Cl)cc2)c(=O)c2cc(CN3CCS(=O)(=O)CC3)ccc21 [Example 8]', 'NO'),
  ('Cn1cc(C(=O)NCc2ccc(Cl)cc2)c(=O)c2cc(CN3CCSCC3)ccc21 [Example 7]', 'NO'),
  ('O=C(NCc1ccc(Cl)cc1)c1cn(CCO)c2ccc(CCCO)cc2c1=O [Example 4]', 'YES'),
  ('Cn1cc(C(=O)NCc2ccc(Cl)cc2)c(=O)c2cc(C(C)(C)CCO)ccc21 [Example 1]', 'YES'),
  ('Cn1cc(C(=O)NCc2ccc(Cl)cc2)c(=O)c2cc(CO)ccc21 [Example 2]', 'NO'),
  ('Cn1cc(C(=O)NCc2ccc(Cl)cc2)c(=O)c2cc(CN3CCOCC3)ccc21 [Example 3]', 'YES');

====

pIC50: −log10 of the molar value.
Reported values: pIC50 for HSV polymerase (Human herpesvirus 1, UniProt P04293), one per item.
measuredQuantity: pIC50

INSERT INTO assay_data (itemsmiles, resultvalue) VALUES
  ('Cn1cc(C(=O)NCc2ccc(Cl)cc2)c(=O)c2cc(C(C)(C)CCO)ccc21', 5.74),
  ('Cn1cc(C(=O)NCc2ccc(Cl)cc2)c(=O)c2cc(CCCO)ccc21', 6.49),
  ('Cn1cc(C(=O)NCc2ccc(Cl)cc2)c(=O)c2cc(CN3CCOCC3)ccc21', 6.13);
